testName: chemical genetic growth profiling, strain panel (AID 1159580);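 further: tested at 20 µM; growth read once vehicle control cultures reached saturation at 30 °C; 1 = growth at the plate median or of vehicle wells; lower values mean less growth of the strain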
setupConditions: S. cerevisiae deletion strains, growth OD, locus YAL021C, strain ccr4, hits give low values
Hit rate of the full screen: of about 5,500 compounds, about 2,000 (36%) were called active. Inconclusive results (about 18%) are left out. The list shows a part of the results.
Would you kindly list normalized growth for each of these compounds?
Answer with the value's number alone.

Data request: # query: normalized growth of entry CC(=O)O[C@H]1C(=O)[C@@]2(C)C([C@H](OC(=O)c3ccccc3)[C@]3(O)C[C@H](OC(=O)[C@H](O)[C@@H](NC(=O)c4ccccc4)c4ccccc4)C(C)=C1C3(C)C)[C@]1(OC(C)=O)CO[C@@H]1C[C@@H]2O (some centres not stated)
Data returned: 0.995

Data request: // returns reported normalized growth for input C=C1CC[C@H](O)C/C1=C/C=C1\CCC[C@]2(C)C([C@H](C)/C=C/[C@H](C)C(C)C)CC[C@@H]12 (some centres not stated)
Data returned: 1.05

Data request: So what does the record say about normalized growth for CN=C(NC#N)NCCSCc1nc(N=C(N)N)cs1 ?
Data returned: 0.966

Data request: Return reported normalized growth; argument: c1ccc(CC2=NCCN2)cc1
Data returned: 1.01

Data request: Given the entry OCCN(CCO)c1nc(N2CCCCC2)c2nc(N(CCO)CCO)nc(N3CCCCC3)c2n1 , report its measured normalized growth.
Data returned: 0.962

Data request: Name the recorded normalized growth for COc1ccc2cc1Oc1ccc(cc1)C[C@H]1c3c(cc4c(c3Oc3cc5c(cc3OC)CCN(C)[C@@H]5C2)OCO4)CCN1C .
Data returned: 1.01

Data request: Entry O=C(O)c1cc(=O)c2ccc(Cl)cc2[nH]1 : reported normalized growth = ?
Data returned: 1

Data request: What value of normalized growth has been reported for the following compound? CC(=O)O[C@@](C)(CCC=C(C)C)C1CC=C(C)CC1 (some centres not stated)
Data returned: 1.01

Data request: What normalized growth value was documented for this compound, CC[C@H]1OC(=O)C[C@@H](O)[C@H](C)[C@@H](O[C@@H]2O[C@H](C)[C@@H](O[C@H]3C[C@@](C)(O)[C@@H](O)[C@H](C)O3)[C@H](N(C)C)[C@H]2O)[C@@H](CC=O)C[C@@H](C)C(=O)/C=C/C(C)=C/[C@@H]1CO[C@@H]1O[C@H](C)[C@@H](O)[C@@H](OC)[C@H]1OC ?
Data returned: 1.01

Data request: Value lookup for normalized growth; key = CC(=O)O[C@H]1C(=O)[C@@]2(C)C([C@H](OC(=O)c3ccccc3)[C@]3(O)C[C@H](O)C(C)=C1C3(C)C)[C@]1(OC(C)=O)CO[C@@H]1C[C@@H]2O (some centres not stated)
Data returned: 0.974

Data request: Need normalized growth of CCc1ccc(CCOc2ccc(CC3SC(=O)NC3=O)cc2)nc1 (configuration not stated) , thanks.
Data returned: 1.03

Data request: Would you mind telling me what normalized growth value was observed for O=C(/C=C/C=C/c1ccc2c(c1)OCO2)N1CCCCC1 ?
Data returned: 0.965

Data request: Would you kindly share the measured normalized growth for CC(=O)O[C@]1(C(C)=O)CCC2C3C=C(C)C4=CC(=O)CCC4(C)C3CCC21C (some centres not stated) ?
Data returned: 1.04

Data request: Looking for the measured normalized growth of C=CC1=C(C(=O)O)N2C(=O)[C@@H](NC(=O)/C(=N/O)c3csc(N)n3)[C@H]2SC1 , can you help?
Data returned: 1.01

Data request: Recorded normalized growth of CCCCCC(=O)O[C@]1(C(C)=O)CCC2C3CCC4=CC(=O)CC[C@]4(C)C3CC[C@@]21C (some centres not stated) , please.
Data returned: 1

Data request: Give the measured normalized growth of CN1C2CC3C[C@H]1C(O3)C2O (some centres not stated) .
Data returned: 1.01

Data request: Can you share its normalized growth? I mean this compound: O=C(Cc1ccccc1)NO
Data returned: 0.981
